// provenance: patent US6426229B1

- method.description: Storage of aqueous solution or slurry for 60 days: HPLC analysis of components and appearance
- Type: physicochemical
- cond: keeping temperature 50° C.
measured.metric: Appearance after kept for 60 days

O=C([O-])CN[C@@H](CC(=O)[O-])C(=O)[O-].[Na+].[Na+].[Na+] [compound 29] = Brown aqueous solution
C[C@@H](C(=O)[O-])N(CC(=O)[O-])CC(=O)[O-].[Na+].[Na+].[Na+] [compound 32] = Brown aqueous solution
CN(CC(=O)[O-])CC(=O)[O-].[Na+].[Na+] [compound 38, disodium N-methyliminodiacetate] = Brown aqueous solution

---

- method.description: Compression strength (hardening property) of powder stored under load for 2 months
- Assay type: physicochemical
- cond: Load 200 (table head [Kg]; text 200 g/cm^2); 20-30° C., relative humidity 40-70%
Tag: condition met if measured Compression strength after stored for 2 months is not below 0.9 Kg/cm^2, condition not met if it is.

Worked examples follow.
O=C([O-])CC(NCCNC(CC(=O)[O-])C(=O)[O-])C(=O)[O-].[Cu+2].[Na+].[Na+] (stereo not shown) = condition met
O=C(O)C[C@H](NCCN[C@@H](CC(=O)O)C(=O)O)C(=O)O [Example 62, (S,S)-ethylenediaminedisuccinic acid] = condition met

Does the molecule O=C(O)CN[C@@H](CC(=O)O)C(=O)O [Example 13, (S)-aspartic acid-N-monoacetic acid] have recorded Compression strength after stored for 2 months that is 0.9 Kg/cm^2 or more?
condition met

Next molecule: CN(CC(=O)O)CC(=O)O
condition not met

---

- method.description: Compression strength (hardening property) of powder stored under load for 2 months
- Assay type: physicochemical
- cond: Load 100 (table head [Kg]; text 100 g/cm^2); 20-30° C., relative humidity 40-70%
Record form. Attribute: Compression strength after stored for 2 months. Fill in for each entry.
State the value, then name its unit.

O=C([O-])C[C@H](NCCN[C@@H](CC(=O)[O-])C(=O)[O-])C(=O)[O-].[Cu+2].[Na+].[Na+] [compound 27, reference compound] = 2.8 Kg/cm^2
O=C([O-])C[C@H](NCC(O)CN[C@@H](CC(=O)[O-])C(=O)[O-])C(=O)[O-].[Na+].[Na+].[Na+].[Na+] [Example 55] = 1.2 Kg/cm^2

# get_value(readout='Compression strength after stored for 2 months', item= O=C(O)C[C@H](NCCCN[C@@H](CC(=O)O)C(=O)O)C(=O)O [Example 69, (S,S)-1,3-propanediaminedisuccinic acid] )
1.0 Kg/cm^2

---

- method.description: Storage of aqueous solution or slurry for 60 days: HPLC analysis of components and appearance
- Assay type: physicochemical
- cond: keeping temperature 40° C.
measured.metric: Appearance after kept for 60 days

O=C([O-])CC(NCCNC(CC(=O)[O-])C(=O)[O-])C(=O)[O-].[Na+].[Na+].[Na+].[Na+] (centres unmarked) = White slurry
O=C([O-])CC(NCCCNC(CC(=O)[O-])C(=O)[O-])C(=O)[O-].[Na+].[Na+].[Na+].[Na+] (centres unmarked) = White slurry

---

- method.description: Compression strength (hardening property) of powder stored under load for 2 months
- Type: physicochemical
- cond: Load 200 (table head [Kg]; text 200 g/cm^2); 20-30° C., relative humidity 40-70%
Record form. Attribute: Compression strength after stored for 2 months. Fill in for each entry.
Give bare numbers, in Kg/cm^2.

Record excerpt, results attached:
O=C([O-])CN(CC(=O)[O-])c1ccccc1C(=O)[O-].[Fe+3] = 0.9
O=C([O-])C[C@H](NCCCN[C@@H](CC(=O)[O-])C(=O)[O-])C(=O)[O-].[Fe+3].[NH4+] = 1.1
O=C([O-])CC(NCCCNC(CC(=O)[O-])C(=O)[O-])C(=O)[O-].[Na+].[Na+].[Na+].[Na+] (stereo not drawn) = 1.0
C[C@@H](C(=O)[O-])N(CC(=O)[O-])CC(=O)[O-].[Na+].[Na+].[Na+] = 1.1
O=C([O-])C[C@H](NCCN[C@@H](CC(=O)[O-])C(=O)[O-])C(=O)[O-].[Na+].[Na+].[Na+].[Na+] = 1.2

// input: 8 compounds below; output: Compression strength after stored for 2 months for each
1. O=C(O)CC(NCCCNC(CC(=O)O)C(=O)O)C(=O)O (stereo not drawn)
2. O=C([O-])CC(NCCNC(CC(=O)[O-])C(=O)[O-])C(=O)[O-].[Na+].[Na+].[Ni+2] (stereo not drawn)
3. O=C([O-])CC(NCCCNC(CC(=O)[O-])C(=O)[O-])C(=O)[O-].[Na+].[Na+].[Ni+2] (stereo not drawn)
4. O=C([O-])C[C@H](NCC(O)CN[C@@H](CC(=O)[O-])C(=O)[O-])C(=O)[O-].[Na+].[Na+].[Na+].[Na+]
5. O=C(O)CN(CC(=O)O)c1ccccc1C(=O)O
6. O=C([O-])CC(NCCNC(CC(=O)[O-])C(=O)[O-])C(=O)[O-].[Fe+3].[NH4+] (stereo not drawn) [Example 76, iron ammonium ethylenediaminedisuccinate]
7. CN(CC(=O)[O-])CC(=O)[O-].[Na+].[Na+] [Example 26, disodium N-methyliminodiacetate]
8. O=C(O)C[C@H](NCC(O)CN[C@@H](CC(=O)O)C(=O)O)C(=O)O

[1.1, 1.0, 1.0, 1.2, 0.9, 1.1, 1.2, 1.0]

// input: 2 compounds below; output: Compression strength after stored for 2 months for each
1. O=C([O-])CC(NCCNC(CC(=O)[O-])C(=O)[O-])C(=O)[O-].[Na+].[Na+].[Na+].[Na+] (stereo not drawn) [Example 46, tetrasodium ethylenediaminedisuccinate]
2. O=C([O-])C[C@H](NCCCN[C@@H](CC(=O)[O-])C(=O)[O-])C(=O)[O-].[Cu+2].[Na+].[Na+]

[1.1, 1.3]

---

- method.description: Storage of aqueous solution or slurry for 60 days: HPLC analysis of components and appearance
- Assay type: physicochemical
- cond: keeping temperature 65° C.
measured.metric: Appearance after kept for 60 days

O=C([O-])C[C@@H](C(=O)[O-])N(CC(=O)[O-])CC(=O)[O-].[Na+].[Na+].[Na+].[Na+] = Light yellow slurry
O=C([O-])C[C@H](NCCN[C@@H](CC(=O)[O-])C(=O)[O-])C(=O)[O-].[Na+].[Na+].[Na+].[Na+] = Light yellow slurry
O=C([O-])CN(CCS(=O)(=O)[O-])CC(=O)[O-].[Na+].[Na+].[Na+] = Light yellow slurry
CN(CC(=O)[O-])CC(=O)[O-].[Na+].[Na+] [Example 107, disodium N-methyliminodiacetate] = Light yellow slurry
O=C([O-])CCN[C@@H](CC(=O)[O-])C(=O)[O-].[Na+].[Na+].[Na+] = Light yellow slurry

// input: 3 compounds below; output: Appearance after kept for 60 days for each
1. O=C([O-])CC(NCCCNC(CC(=O)[O-])C(=O)[O-])C(=O)[O-].[Na+].[Na+].[Na+].[Na+] (centres unmarked)
2. C[C@@H](C(=O)[O-])N(CC(=O)[O-])CC(=O)[O-].[Na+].[Na+].[Na+]
3. O=C([O-])CN[C@@H](CC(=O)[O-])C(=O)[O-].[Na+].[Na+].[Na+]

1: Light yellow slurry; 2: Light yellow slurry; 3: Light yellow slurry

---

- method.description: Storage of aqueous solution or slurry for 60 days: HPLC analysis of components and appearance
- Type: physicochemical
- cond: keeping temperature 65° C.
measured.metric: Content of the compound of the formula [I] in aqueous solution after kept for 60 days (wt. %)
Give bare numbers, in wt. %.

Record excerpt, results attached:
O=C([O-])CN(CCS(=O)(=O)[O-])CC(=O)[O-].[Na+].[Na+].[Na+] = 63.7
O=C([O-])CCN[C@@H](CC(=O)[O-])C(=O)[O-].[Na+].[Na+].[Na+] = 65.4

// input: 6 molecules below; output: Content of the compound of the formula [I] in aqueous solution after kept for 60 days for each
1. CN(CC(=O)[O-])CC(=O)[O-].[Na+].[Na+] [Example 107, disodium N-methyliminodiacetate]
2. O=C([O-])C[C@@H](C(=O)[O-])N(CC(=O)[O-])CC(=O)[O-].[Na+].[Na+].[Na+].[Na+]
3. O=C([O-])CN[C@@H](CC(=O)[O-])C(=O)[O-].[Na+].[Na+].[Na+]
4. O=C([O-])C[C@H](NCCN[C@@H](CC(=O)[O-])C(=O)[O-])C(=O)[O-].[Na+].[Na+].[Na+].[Na+]
5. C[C@@H](C(=O)[O-])N(CC(=O)[O-])CC(=O)[O-].[Na+].[Na+].[Na+]
6. O=C([O-])CC(NCCCNC(CC(=O)[O-])C(=O)[O-])C(=O)[O-].[Na+].[Na+].[Na+].[Na+] (centres unmarked)

1: 64.5; 2: 64.5; 3: 63.7; 4: 65.4; 5: 64.7; 6: 65.4
